target: Aβ42 (Homo sapiens); experiment: Th-T (thioflavin-T) assay of Aβ42 aggregation; format: biochemical; conditions: column suffix _20; reading M6
Sequence (P05067 672-713): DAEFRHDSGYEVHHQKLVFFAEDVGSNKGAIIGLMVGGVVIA
Test Readout: Th-T assay signal, mean of three wells (Fig. 7a)

C=C1CCC2C(C)(CCC=C(C)C)C(O)CCC2(C)C1Cc1c(OC)oc(C)c(C(=O)OC)c1=O (centres unmarked) [Compound 14] = 0.3005
C=C1CC[C@@H]2[C@](C)(CC[C@H]3O[C@H](C=C(C)C)C[C@@]23C)[C@@H]1Cc1c(OC)oc(CO)c(C(=O)OC)c1=O [Compound 21] = 0.1953
C=C1CCC2C(C)(CCC=C(C)C)C(O)CCC2(C)C1Cc1c(OC)oc(CO)c(C)c1=O (centres unmarked) [Compound 12] = 1.822
C=C1CCC2C(C)(CCC=C(C)C)C(O)CCC2(C)C1Cc1c(OC)oc(CO)c(C(=O)OC)c1=O (centres unmarked) [Compound 13] = 0.2044
C=C1CC[C@@H]2[C@](C)(CC[C@H]3O[C@H](C=C(C)C)C[C@@]23C)[C@@H]1Cc1c(OC)oc(CO)c(C)c1=O [Compound 20] = 0.4061
